test system: A2780; assay: MTS Assay, cell proliferation analysis (A2780); assay type: cell-based; details: Homo sapiens; A2780 cells; 72 hours; 10 Percent FBS
Test Readout: IC50 (µM)
Answers are plain numbers, in µM.

# query: IC50 of entry Cc1ccc(S(=O)(=O)NCc2ccc(-c3nnc4n3-c3cccnc3Nc3ccccc3-4)cc2)cc1 [Example 118]
14

Cool, now O=C(NCCc1cccs1)NC1CCN(Cc2ccc(-c3nnc4n3-c3cccnc3Nc3ccccc3-4)cc2)CC1 [Example 182]
10

c1ccc(-c2nnc(C3CCN(Cc4ccc(-c5nnc6n5-c5cccnc5Nc5ccccc5-6)cc4)CC3)[nH]2)nc1 [Example 63] ?
17

Now, please, on to the next molecule.
Data request, read-out IC50, for O=C(NC1(c2ccc(-c3nnc4n3-c3cccnc3Nc3ccccc3-4)cc2)CCC1)c1ccccc1 [Example 193]
12

Origin of measurements: patent US8541407B2
